Task for the reader: assign each of the following compounds its reported cytotoxicity at 70.5 h.
assay: Human HepG2 cell viability assay in 384 well format; type: toxicity, cell-based; design: dose 125 nL, time 70.5 hour; concentration not given beside the values; conditions: HepG2 cells, read-out: Inhibition
# unit: % | format: bare number

Input: # lookup: cytotoxicity at 70.5 h of Cn1cc(-c2nc(CN3CCCCC3Cn3cncn3)cs2)cn1 (stereo not drawn)
Output: 19.3

Input: # lookup: cytotoxicity at 70.5 h of C=C(C)CN(CC)C(=O)c1cc(C)ccc1NS(C)(=O)=O
Output: 3.16

Input: # lookup: cytotoxicity at 70.5 h of Cc1cc(N2CCC(n3cc(CN4CCNCC4)nn3)CC2)ccn1
Output: 24.4

Input: # lookup: cytotoxicity at 70.5 h of CS(=O)(=O)c1cn[nH]c1C1CCCN(C(=O)Cn2cccn2)C1 (stereo not drawn)
Output: -9.34

Input: # lookup: cytotoxicity at 70.5 h of O=C(C1CCOCC1)N1CCN(CC2CC2)c2ncccc2C1
Output: -14.2

Input: # lookup: cytotoxicity at 70.5 h of O=C(c1cc(C2CC2)on1)N1CC[C@]2(C[C@H](Oc3cccnc3)CO2)C1
Output: -16.2

Input: # lookup: cytotoxicity at 70.5 h of CCc1n[nH]c(C2CN(C(=O)c3nc(C)n4ccccc34)CCO2)n1 (stereo not drawn)
Output: -20.1

Input: # lookup: cytotoxicity at 70.5 h of COc1ccc(OC)c(C2CCN(C(=O)C3CCS(=O)(=O)CC3)C2)c1 (stereo not drawn)
Output: -7.16

---

assay: Human HepG2 cell viability assay in 384 well format; type: toxicity, cell-based; set-up: dose 125 nL, time 70.5 hour; concentration not given beside the values; conditions: HepG2 cells, read-out: Inhibition
attributeMeasured: cytotoxicity at 70.5 h (%)
# unit: % | format: bare number

Input: # lookup: cytotoxicity at 70.5 h of Clc1cnccc1NCc1cccc(COC2CCOCC2)c1
Output: -0.494

Input: # lookup: cytotoxicity at 70.5 h of O=C(CCc1nccs1)N1CCN(c2ccc(Cl)cn2)CC1
Output: -5.57

Input: # lookup: cytotoxicity at 70.5 h of Cc1ccc(OC2(C(=O)O)CCN(C(=O)c3nc(C)oc3C)CC2)cn1
Output: -7.82

Input: # lookup: cytotoxicity at 70.5 h of Cc1oc(C(=O)O)cc1S(=O)(=O)Nc1ccc(Cl)c(F)c1
Output: -6.62

Input: # lookup: cytotoxicity at 70.5 h of Cc1ccc(S(=O)(=O)Cc2nsc(N(C)C)n2)c(C)c1
Output: -6.24

Input: # lookup: cytotoxicity at 70.5 h of Cc1cnn(CC2CCCN2C(=O)Cn2nc(C)c(Cl)c2C)c1 (stereo unspecified)
Output: -1.94

Input: # lookup: cytotoxicity at 70.5 h of COC[C@H]1CCC[C@]12CN(S(=O)(=O)c1cccs1)CCO2
Output: -4.35

Input: # lookup: cytotoxicity at 70.5 h of Cc1nn(C)c(C)c1CN(C)c1nc(C2CCCC2)nc2c1cnn2C
Output: 8.68

Input: # lookup: cytotoxicity at 70.5 h of c1ccc2c(c1)CCN(c1nc(-c3ccncc3)nc3c1CCNC3)C2
Output: 23.9

Input: # lookup: cytotoxicity at 70.5 h of COc1ccc(OCc2cc(C(=O)N3CCC(O)CC3)n[nH]2)c(Cl)c1
Output: -5.72

Input: # lookup: cytotoxicity at 70.5 h of CCN1CC(CN(C)Cc2nc(-c3ccoc3)oc2C)CC1=O (stereo unspecified)
Output: 0.925

Input: # lookup: cytotoxicity at 70.5 h of c1ccc(OCC2CC2)c(CNC2CCc3ncnn3C2)c1 (stereo unspecified)
Output: -7.19

Input: # lookup: cytotoxicity at 70.5 h of CO[C@H]1CN(C(=O)OC(C)(C)C)CC1NCc1ccoc1 (stereo partly specified)
Output: -13.8

Input: # lookup: cytotoxicity at 70.5 h of NC(=O)c1ccc(CNC(=O)Nc2cn[nH]c2)cc1
Output: 16

Input: # lookup: cytotoxicity at 70.5 h of CC(=O)c1ccc(C(=O)N2C[C@@H]3CC[C@H](C2)N(CC2CCC2)C3)s1
Output: -3.03

Input: # lookup: cytotoxicity at 70.5 h of COc1ccnc(N2CCCN(C(=O)CCc3cnn(C)c3)CC2)n1
Output: -10.3

Input: # lookup: cytotoxicity at 70.5 h of CC(C)[C@H](NC(=O)N1CCC(Cc2ccccc2)CC1)C(=O)O
Output: -8.02

Input: # lookup: cytotoxicity at 70.5 h of CCCS(=O)(=O)N1CCC2(CCC(=O)N(CCc3cccnc3)C2)CC1
Output: -10.9

Input: # lookup: cytotoxicity at 70.5 h of Cn1nccc1C(=O)N1Cc2ccccc2OC2(CCOCC2)C1
Output: 1.33

Input: # lookup: cytotoxicity at 70.5 h of COCCn1cnnc1C1CCCN(c2cnccn2)C1 (stereo unspecified)
Output: -5.97

Input: # lookup: cytotoxicity at 70.5 h of O=C(NCCc1ccn(-c2ccc(F)cc2)n1)C1CCCOC1 (stereo unspecified)
Output: -1.01

Input: # lookup: cytotoxicity at 70.5 h of CN1CCOC(c2cncc(CCC(N)=O)n2)C1 (stereo unspecified)
Output: -3.04

Input: # lookup: cytotoxicity at 70.5 h of NC(=O)CCN1CCc2onc(-c3ccccc3F)c2C1
Output: -11.6

Input: # lookup: cytotoxicity at 70.5 h of CCN(CC)C1CCN(C(=O)c2cc(-n3cccn3)ccc2Cl)CC1
Output: -0.746

Input: # lookup: cytotoxicity at 70.5 h of CCc1nc(CN(C)CC2CCN(CCO)CC2)no1
Output: -9.2

Input: # lookup: cytotoxicity at 70.5 h of CNc1ccnc(NCCSc2nccn2C)n1
Output: -1.64

---

Task for the reader: assign each of the following compounds its reported cytotoxicity at 70.5 h.
experiment: Human HepG2 cell viability assay in 384 well format; assay type: toxicity, cell-based; set-up: dose 125 nL, time 70.5 hour; concentration not given beside the values; conditions: HepG2 cells, read-out: Inhibition
# unit: % | format: bare number

Input: # lookup: cytotoxicity at 70.5 h of COc1cc(CSc2nnc(C)n2CC(N)=O)ccc1SC
Output: -118

Input: # lookup: cytotoxicity at 70.5 h of Cn1ncnc1CNC1CCc2cc(Cl)ccc21 (configuration not stated)
Output: -19.7

Input: # lookup: cytotoxicity at 70.5 h of CC(C)(CN1CCC2(CCOCC2)CC1)N1CCOCC1
Output: 9.42

Input: # lookup: cytotoxicity at 70.5 h of Cc1ccc(NC(=O)c2nc3c(s2)CCCN3C(C)C)cn1
Output: -0.97

Input: # lookup: cytotoxicity at 70.5 h of CCN1CCN(C(=O)NCc2cc[nH]n2)CC1
Output: -8.83

Input: # lookup: cytotoxicity at 70.5 h of Cc1ccc(F)c(NC(=O)NCCCn2nc3ccccn3c2=O)c1
Output: -3.3

Input: # lookup: cytotoxicity at 70.5 h of CN(C)C(=O)c1cccc(CNc2ccc(C#N)cn2)c1
Output: 5.12

Input: # lookup: cytotoxicity at 70.5 h of COc1ccc(-c2ccc(C(=O)N3CCC[C@@H]3CO)o2)cc1
Output: -13.9

Input: # lookup: cytotoxicity at 70.5 h of CN(C)Cc1nnc2n1CCN(Cc1cccnc1)C2
Output: -2.36

Input: # lookup: cytotoxicity at 70.5 h of CN(Cc1cccs1)C(=O)CN1CCOC(Cn2cncn2)C1 (configuration not stated)
Output: 17.4

Input: # lookup: cytotoxicity at 70.5 h of Cc1ncsc1CCC(=O)NC1CCN(c2ccc(Cl)nn2)CC1
Output: -13.9

Input: # lookup: cytotoxicity at 70.5 h of Cc1cccc(N2CC3(CCN(Cc4nccn4C)C3)CC2=O)c1 (configuration not stated)
Output: -8.56

---

experiment: Human HepG2 cell viability assay in 384 well format; type: toxicity, cell-based; set-up: dose 125 nL, time 70.5 hour; concentration not given beside the values; conditions: HepG2 cells, read-out: Inhibition
Task for the reader: assign each of the following compounds its reported cytotoxicity at 70.5 h.
# unit: % | format: bare number

Input: # lookup: cytotoxicity at 70.5 h of O=C1CC[C@H]2[C@H](CCN2Cc2ccccn2)N1CC1CCOCC1
Output: -6.68

Input: # lookup: cytotoxicity at 70.5 h of OC1(CN2CCCC2)CCCN(Cc2cnc(-c3ccccc3)nc2)C1 (centres undefined)
Output: 31.4

Input: # lookup: cytotoxicity at 70.5 h of O=C(C1CC1)N1CCc2ccccc2C12CCNCC2
Output: -1.81

Input: # lookup: cytotoxicity at 70.5 h of Cc1ccoc1-c1nnc(CN2CCn3c(nnc3C(C)C)C2)o1
Output: -2.59

Input: # lookup: cytotoxicity at 70.5 h of CC(C)OCCCNC(=O)CSc1nnc(OC(C)C)s1
Output: -4.19

Input: # lookup: cytotoxicity at 70.5 h of Cc1cccc(S(=O)(=O)N2C[C@H]3C[C@H](C(=O)NCC(C)C)[C@@H](C2)O3)c1
Output: 25.7

Input: # lookup: cytotoxicity at 70.5 h of CCOc1ccc(Br)cc1-c1cc(N)[nH]n1
Output: -6.54

Input: # lookup: cytotoxicity at 70.5 h of CC(C)CNC(=O)[C@H]1CCS(=O)(=O)[C@@H]2CN(Cc3cccc(Cl)c3)C[C@H]12
Output: 24.3

Input: # lookup: cytotoxicity at 70.5 h of CC(C)(C)C(=O)N1CCC2(CNS(=O)(=O)c3cnccc3O2)C1 (centres undefined)
Output: 41.2

Input: # lookup: cytotoxicity at 70.5 h of Cc1cc(Cl)ccc1C(=O)N1C[C@H](C2CC2)[C@@H](N)C1
Output: -1.61

Input: # lookup: cytotoxicity at 70.5 h of CO[C@H]1CCN(C(=O)c2ccc3oc(C)cc3c2)C[C@@]12CCCO2
Output: -5.42

Input: # lookup: cytotoxicity at 70.5 h of COc1cccc2c(=O)n(CCN3CCNCC3)cnc12
Output: -0.783

Input: # lookup: cytotoxicity at 70.5 h of Cc1nn(-c2ccccc2)c(C)c1-c1ccnc(N2CCCNCC2)n1
Output: -2.54

Input: # lookup: cytotoxicity at 70.5 h of O=C(c1cccc(-c2ccc(F)cc2)c1)N1CCC2(CC1)[C@H](O)C[C@@H]2O
Output: -9.07

Input: # lookup: cytotoxicity at 70.5 h of CC(CNC(=O)CCCc1ccccn1)c1ccsc1 (centres undefined)
Output: -12.4

Input: # lookup: cytotoxicity at 70.5 h of Cc1noc(C(C)C)c1C(=O)NCc1ccc(N(C)C)c(F)c1
Output: -9.82

Input: # lookup: cytotoxicity at 70.5 h of O=C(NCCCN1CCOCC1)Nc1cnc2cc(Cl)ccc2c1O
Output: 9.66

Input: # lookup: cytotoxicity at 70.5 h of Cc1nc(C)n(C2CCCN(C(=O)c3cc(C(N)=O)cs3)C2)n1 (centres undefined)
Output: -17.1

Input: # lookup: cytotoxicity at 70.5 h of Cc1nc(N(C)C2CCCCC2)ncc1C(C)NC(=O)c1cccnc1 (centres undefined)
Output: -5.07

Input: # lookup: cytotoxicity at 70.5 h of CCNC(=O)COc1cc(CC)c2c(C)nn(-c3ccc(C)cc3)c2n1
Output: -3.18

Input: # lookup: cytotoxicity at 70.5 h of CN1C[C@@H](C(=O)NCC(F)(F)F)[C@@]2(CCc3ccccc3C(=O)N2)C1
Output: 3.97

Input: # lookup: cytotoxicity at 70.5 h of CC(NC1CCN(CCS(C)(=O)=O)CC1)c1ccc(Cl)cc1 (centres undefined)
Output: 19.3

Input: # lookup: cytotoxicity at 70.5 h of COc1ccc(CN2C[C@H](O)C[C@H]2c2nc(-c3ccccc3)no2)cc1
Output: 9.25

Input: # lookup: cytotoxicity at 70.5 h of OCCN1CCC(Cc2nccs2)CC1
Output: 1.19

Input: # lookup: cytotoxicity at 70.5 h of CCOCC1CN(C(=O)Cc2ccccn2)Cc2c1cnn2CC (centres undefined)
Output: 23.4

Input: # lookup: cytotoxicity at 70.5 h of Cc1ccc(-c2ccnc(N3CCC4(CC3)CNC(=O)C4)n2)c(C)n1
Output: 15.1

Input: # lookup: cytotoxicity at 70.5 h of COc1ccc(CN2CCN(C(=O)c3ccc(C)n3C)CC2)cc1
Output: -11.9

Input: # lookup: cytotoxicity at 70.5 h of O=C(NC1CC1)N1CCc2ccc(=O)n(Cc3cccnc3)c2CC1
Output: 6.33

Input: # lookup: cytotoxicity at 70.5 h of C[C@]1(O)CN(Cc2ccc(C(=O)O)cc2)CC[C@@H]1Oc1cccc(F)c1
Output: -10.9

Input: # lookup: cytotoxicity at 70.5 h of CCCOCC1CCN(C(=O)Cn2cccc(OC)c2=O)C1 (centres undefined)
Output: -9.9

Input: # lookup: cytotoxicity at 70.5 h of COc1ccc(COCC(O)CNC(=O)c2ccncc2)cc1 (centres undefined)
Output: -1.56

Input: # lookup: cytotoxicity at 70.5 h of O=C(c1ccnnc1)N1C[C@@H](OCC2CCOCC2)[C@H]2OCCC[C@H]21
Output: -12.9

Input: # lookup: cytotoxicity at 70.5 h of CN1C(=O)CO[C@H]2CCN(C(=O)Cc3ccc4c(c3)CCCC4)CC[C@@H]21
Output: -4.91

Input: # lookup: cytotoxicity at 70.5 h of COc1ccccc1CNc1ncnc2c1NC(=O)CN2
Output: -6.12
